- system-under-test: human GPR40 (Homo sapiens)
- Construct: expressed in transfected cells; host or cells: HEK cells stably expressing the aequorin reporter
- Sequence (O14842 whole entry): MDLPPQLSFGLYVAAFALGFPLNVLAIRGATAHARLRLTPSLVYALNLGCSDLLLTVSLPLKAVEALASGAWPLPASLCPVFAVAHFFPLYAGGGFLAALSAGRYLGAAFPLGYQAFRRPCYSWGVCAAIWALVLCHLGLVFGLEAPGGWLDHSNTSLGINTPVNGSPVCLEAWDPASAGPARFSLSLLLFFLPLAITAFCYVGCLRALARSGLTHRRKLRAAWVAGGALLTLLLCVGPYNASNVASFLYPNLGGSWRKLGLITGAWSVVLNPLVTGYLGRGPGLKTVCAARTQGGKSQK
- method-notes: Inositol Phosphate Turnover (IP1) Assay 2
- Assay type: cell-based
- run-conditions: HEK cells stably expressing human GPR40; 15,000 cells per well; compound acoustically transferred; CisBio IP-One kit
readout-type: EC50 (pM)

compound	experimental-result
COc1cc(-c2ccc(C3CCc4ccc([C@H](C5CC5)[C@H](C)C(=O)O)cc4O3)cc2CN2CCC(C(F)(F)F)C2)c(F)cn1 (stereo partly drawn)	870
COc1cc(-c2ccc(C3CCc4ccc([C@H](C5CC5)[C@H](C)C(=O)O)cc4O3)cc2CN2CC[C@@H](O)C2)c(F)cn1 (stereo partly drawn)	238000
COc1cc(-c2ccc(C3CCc4ccc([C@H](C5CC5)[C@H](C)C(=O)O)cc4O3)cc2CN2CCC(F)(F)C2)c(F)cn1 (single isomer, unassigned) [Example 32]	840

====

Parameter log10(EC50): see the listing below.
- system-under-test: human GPR40 (Homo sapiens)
- Construct: expressed in transfected cells; host or cells: HEK cells stably expressing the aequorin reporter
- method-notes: Inositol Phosphate Turnover (IP1) Assay 3
- Format: cell-based
- run-conditions: HEK cells stably expressing human GPR40
readout-type: log10(EC50) (log10 of the value in nM)

compound	log10(EC50)
COc1cc(-c2ccc(C3CCc4ccc([C@H](C5CC5)[C@H](C)C(=O)O)cc4O3)c(CN(C)C(C)(C)C)c2)ccn1 (single isomer, unassigned) [Example 114a]	0.18
CCN(Cc1cc(C2CCc3ccc([C@H](C4CC4)[C@H](C)C(=O)O)cc3O2)ccc1-c1ccnc(OC)c1)C(C)C (some centres unmarked)	0.52
CCN(CC)Cc1cc(C2CCc3ccc([C@H](C4CCC4)[C@H](C)C(=O)O)cc3O2)ccc1-c1cc(OC)ncc1F (single isomer, unassigned) [Example 99]	-0.74
CCN(CC)Cc1cc(C2CCc3ccc([C@H](C4CC4)[C@H](C)C(=O)O)cc3O2)c(F)cc1-c1ccnc(OC)c1 (single isomer, unassigned) [Example 182]	1.20
COc1cc(-c2ccc(C3CCc4ccc([C@H](C5CC5)[C@H](C)C(=O)O)cc4O3)cc2CN2[C@H](C)CCC[C@@H]2C)c(F)cn1 (some centres unmarked)	-0.70
COc1cc(-c2ccc(C3CCc4ccc([C@H](C5CC5)[C@H](C)C(=O)O)cc4O3)cc2CN2[C@H](C)CC[C@H]2C)ccn1 (some centres unmarked)	0.63
CCN(CC)Cc1cc(C2CCc3ccc([C@H](C4CC4)[C@H](C)C(=O)O)cc3O2)ccc1-c1ccnc(OC)c1 (single isomer, unassigned) [Example 221]	1.15
COc1cc(-c2ccc(C3CCc4ccc([C@H](C5CC5)[C@H](C)C(=O)O)cc4O3)cc2CN2CC3CC3C2)c(C#N)cn1 (single isomer, unassigned) [Example 192]	-0.52
C[C@H](C(=O)O)[C@H](c1ccc2c(c1)OC(c1ccc(-c3cc(O)ncc3F)c(CN(C)C3CCOC3)c1)CC2)C1CC1 (some centres unmarked) [Example 268a]	-0.22
COc1cc(-c2ccc(C3CCc4ccc([C@H](C5CC5)[C@H](C)C(=O)O)c(F)c4O3)cc2CN2CCCC2(C)C)c(F)cn1 (single isomer, unassigned) [Example 207]	0.11
CCOc1cc(-c2ccc(C3CCc4ccc([C@H](C5CC5)[C@H](C)C(=O)O)cc4O3)cc2CN2CCCC2)c(Cl)cn1 (single isomer, unassigned) [Example 217]	1.76
